# tested.system: T1, human proprotein convertase subtilisin kexin type 9 (self-cleaved, mature, secreted PCSK9) (human, UniProt Q8NBP7 31-692)
# T1 construct: Self-cleavage means the pro-domain and the catalytic/C-terminal part are separate, associated polypeptides; also called huPCSK9; wild-type PCSK9
# T1 sequence (Q8NBP7 other isoform, or with tags, fused parts or gaps): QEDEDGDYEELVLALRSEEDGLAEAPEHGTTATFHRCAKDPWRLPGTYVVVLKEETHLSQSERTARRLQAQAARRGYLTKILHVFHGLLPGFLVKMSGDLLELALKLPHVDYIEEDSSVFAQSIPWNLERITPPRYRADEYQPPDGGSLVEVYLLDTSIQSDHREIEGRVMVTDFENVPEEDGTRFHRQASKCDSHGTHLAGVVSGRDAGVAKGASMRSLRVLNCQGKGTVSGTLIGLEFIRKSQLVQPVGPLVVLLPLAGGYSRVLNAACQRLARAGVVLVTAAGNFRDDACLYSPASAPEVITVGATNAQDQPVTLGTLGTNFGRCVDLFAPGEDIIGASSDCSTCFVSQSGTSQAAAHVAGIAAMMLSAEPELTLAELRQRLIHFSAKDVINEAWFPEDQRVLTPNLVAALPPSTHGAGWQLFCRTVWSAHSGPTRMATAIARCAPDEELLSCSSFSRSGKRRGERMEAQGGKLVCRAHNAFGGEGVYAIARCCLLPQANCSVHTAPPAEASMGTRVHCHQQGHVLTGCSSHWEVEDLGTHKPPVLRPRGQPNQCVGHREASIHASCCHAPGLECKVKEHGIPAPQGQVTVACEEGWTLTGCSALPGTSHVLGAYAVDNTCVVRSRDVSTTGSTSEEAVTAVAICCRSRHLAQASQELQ
# assay.overview: ELISA, hybridoma supernatant on neutravidin-captured biotinylated PCSK9
Entries annotated with measured Late primary screen OD

stdin: I have this binder here, 131D12 (antibody, human IgG2, lambda, V domains shown, Fully human XenoMouse antibody; also called L3/H3; VL3/VH2) VH: QGQLVESGGGVVQPGRSLRLSCAASGFTFSSYGMHWVRQAPGKGLEWVAVIWHDGSNKYYADSVKGRFTISRDNSKNTLYLQMNSLRAEDTAVYYCARVVPDNWNQDYYGMDVWGQGTTVTVSS VL: SYELTQPPSVSVSPGQTASITCSGDKLGDKYACWFQQKPGQSPVLVIYQDSKRPFGIPDRFSGSKSGNTATLTISGTQAMEEADYYCQAWDSSTAVFGGGTKLTVLG , and I need its recorded Late primary screen OD.
stdout: 3.56 OD (450 nm)

stdin: Now the same for 101F7 (antibody, human IgG2, lambda, V domains shown, Fully human XenoMouse antibody; also called L1/H1; VL1/VH1) VH: QVQLVQSGAEVKKPGASVKVSCKASGYTFSSYGISWVRQAPGQGLEWMGWISAYNGNTNYAQKFQGRVTMTTDTSTSTAYMELRSLRSDDTAVYYCAREVRLAARPDHYYGMDVWGQGTTVTVSS VL: QSVLTQPPSVSAAPGQKVTISCSGSSSNIGINYVSWYQLLPGTAPKLLIYDNNKRPLGIPDRFSGSKSGTSATLGITGLQTGDETDYYCGTWDSSLSAWVFGGGTKLTVLG
stdout: 3.91 OD (450 nm)

stdin: Check 103B7 (antibody, human IgG2, lambda, V domains shown, Fully human XenoMouse antibody; also called L2/H2; VL2/VH1) VH: QVQLVQSGAEVKKPGASVKVSCKASGYTFSSYGISWVRQAPGQGLEWMGWISAYNGNTNYAQKFQGRVTMTTDTSTSTAYMELRSLRSDDTAVYYCAREVRLAARPDHYYGMDVWGQGTTVTVSS VL: QSVLTQPPSVSAAPGQKVTISCSGSSSNIGINYVSWYQLLPGTAPKLLIYDNNKRPLGIPDRFSGSKSGTSVTLGITGLQTGDEADYFCGTWDSNLSAWVFGGGTKLTVLG too.
stdout: 3.46 OD (450 nm)
